This collection of values is drawn from ChEMBL document CHEMBL5620391.

assay explanation: Clearance in fasted Sprague-Dawley rat at 2 mg/kg, iv measured for 24 hrs by LC-MS/MS analysis
Format: ADME, organism-based
assay context: in vivo
observed property: clearance (mL/min/kg)
Respond with the bare value in mL/min/kg.

Form field clearance, entry `O=S(=O)(Nc1cc(-c2cnc3[nH]nc(-c4ccncc4)c3c2)cnc1Cl)c1ccc(F)cc1` : 37
